- System: OVCAR-5 ovarian
- ASSAY_EXPLANATION: NCI tumour cell line growth inhibition, 48 h
Where a SMILES comes first, the peptide text is derived from it. Bridges are numbered along the chain shown (N, C = ends). The star is where a group is joined. Cbz = O=C(OCc1ccccc1)*
RESULT_TYPE: TGI

[[record]]
compound = "COC(=O)C1CCCCNC(=O)CCC(NC(=O)OCc2ccccc2)C(=O)N1 (stereo not drawn) (Cbz-Glu-Lys-OMe; lactam 1-2; configuration not given here)"
result_type = "TGI"
recorded_value = "> 100 µM"

[[record]]
compound = "COc1cc(/C=C\\c2ccncc2)cc(OC)c1OC"
result_type = "TGI"
recorded_value = "> 100 µM"

[[record]]
compound = "Oc1nc(N/N=C/c2ccccc2)[nH]c1/C=C1\\C=Nc2ccccc21"
result_type = "TGI"
recorded_value = "> 100 µM"

